Reported IC50 values for the following compounds.
Biological target: His-EBNA1 (DNA binding domain of EBNA1, amino acids 459-607) (Epstein-Barr virus, UniProt P03211)
Sequence (P03211 459-607): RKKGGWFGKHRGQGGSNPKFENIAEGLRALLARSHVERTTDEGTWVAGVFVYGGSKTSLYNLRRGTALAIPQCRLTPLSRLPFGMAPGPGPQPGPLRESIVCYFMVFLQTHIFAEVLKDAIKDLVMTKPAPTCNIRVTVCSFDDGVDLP
Where a name gives a salt, the structure may show the parent alone.
Observable: IC50

Compound	Result
Cn1ccc2c(C#Cc3cccc(C(=O)O)c3-n3cccc3)cccc21	< 1 µM
COC(=O)c1c[nH]c2cc(-c3c(C#Cc4cscn4)cccc3C(=O)O)ccc12	1 to 10 µM
O=C(O)c1cccc(C#CCNCCCn2ccnc2)c1-c1ccccc1	10 to 100 µM
O=C(O)c1cccc(C#Cc2ccnc(O)c2)c1-n1cccc1	10 to 100 µM
CC(=O)Nc1cccc(C#Cc2cccc(C(=O)O)c2-c2ccc3cc[nH]c3c2)c1	< 1 µM
NS(=O)(=O)c1cccc(C#Cc2ccccc2)c1-n1cccc1	1 to 10 µM
CC(C)(N)C#Cc1cccc(C(=O)O)c1-n1cccc1	100 to 1000 µM
O=C(O)c1cccc(C#Cc2ccc(F)c(OC3CCOCC3)c2)c1-c1ccc2cc[nH]c2c1	1 to 10 µM
O=C(O)c1cccc(C#Cc2ccccc2)c1-n1cccc1	< 1 µM
O=C(O)c1cccc(C#CCn2ccnc2)c1-n1cccc1	< 1 µM
NC(=O)c1cccc(C#Cc2cccc(C(=O)O)c2N)c1 [Entry 278, trifluoroacetate salt]	10 to 100 µM
Nc1ccc(C#Cc2cccc(C(=O)O)c2-c2ccc3cc[nH]c3c2)cc1	1 to 10 µM
Cc1ccc(C)n1-c1c(C#Cc2ccccc2)cccc1C(=O)O	< 1 µM
O=C(O)c1cccc(C#Cc2ccccc2)c1-c1cnc2ccccc2c1	10 to 100 µM
O=C(O)c1cccc(C#Cc2ccccc2)c1-c1ccccc1	10 to 100 µM
O=C(O)c1cc(F)cc(C#Cc2ccccc2)c1-n1cccc1	10 to 100 µM
O=C(O)c1cccc(C#Cc2cscn2)c1-c1ccc2cc[nH]c2c1	10 to 100 µM
O=C(O)c1cccc(C#CC(O)c2ccc(F)cc2)c1-c1cccc(O)c1 (stereo not shown)	1 to 10 µM
COc1cccc(-c2c(C#Cc3ccccc3)cccc2C(=O)O)c1	1 to 10 µM
